Cited source for all entries: ChEMBL document CHEMBL5608186

Test system: Streptococcus pneumoniae
Assay: Selectivity ratio of MBC for Streptococcus pneumoniae PU 09 harboring mef gene to MIC for Streptococcus pneumoniae PU 09 harboring mef gene
Format: functional
Measured Selectivity ratio accompanies every entry in the list below.

Use these answered entries as a reference point.
| molecule | targetSystem | Selectivity ratio |
| --- | --- | --- |
| CC[C@H]1OC(=O)[C@H](C)[C@@H](OC(=O)CCNCCCCCCCNc2cc3c(cc2F)c(=O)c(C(=O)O)cn3C2CC2)[C@H](C)[C@@H](O[C@@H]2O[C@H](C)C[C@H](N(C)C)[C@H]2O)[C@](C)(OC)C[C@@H](C)/C(=N\OC)[C@H](C)[C@H]2OC(=O)O[C@@]21C | Streptococcus pneumoniae | 1 |
| CC[C@H]1OC(=O)[C@H](C)[C@@H](OC(=O)CCNCCCc2ccc3c(c2)c(=O)c(C(=O)O)cn3C2CC2)[C@H](C)[C@@H](O[C@@H]2O[C@H](C)C[C@H](N(C)C)[C@H]2O)[C@](C)(OC)C[C@@H](C)/C(=N\OC)[C@H](C)[C@H]2OC(=O)O[C@@]21C | Streptococcus pneumoniae | 1 |
| CC[C@H]1OC(=O)[C@H](C)[C@@H](OC(=O)CCN2CCN(c3cc4c(cc3F)c(=O)c(C(=O)O)cn4C3CC3)CC2)[C@H](C)[C@@H](O[C@@H]2O[C@H](C)C[C@H](N(C)C)[C@H]2O)[C@](C)(OC)C[C@@H](C)/C(=N\OCC#Cc2cncc(C(N)=O)c2)[C@H](C)[C@H]2OC(=O)O[C@@]21C | Streptococcus pneumoniae | 2 |
| CC[C@H]1OC(=O)[C@H](C)C(=O)[C@H](C)[C@@H](O[C@@H]2O[C@H](C)C[C@H](N(C)C)[C@H]2O)[C@](C)(OC)C[C@@H](C)C(=O)[C@H](C)[C@H]2N(CCCCn3cnc(-c4cccnc4)c3)C(=O)O[C@]12C | Streptococcus pneumoniae | 8 |

In: Which Selectivity ratio value is on record for C#CCO/N=C1\[C@H](C)C[C@@](C)(OC)[C@H](O[C@@H]2O[C@H](C)C[C@H](N(C)C)[C@H]2O)[C@@H](C)[C@H](OC(=O)CCN2CCN(c3cc4c(cc3F)c(=O)c(C(=O)O)cn4C3CC3)CC2)[C@@H](C)C(=O)O[C@H](CC)[C@@]2(C)OC(=O)O[C@@H]2[C@H]1C ?
Out: 2

In: Name the reported Selectivity ratio value associated with the molecule CC[C@H]1OC(=O)[C@H](C)[C@@H](OC(=O)CCNCCCCCNc2cc3c(cc2F)c(=O)c(C(=O)O)cn3C2CC2)[C@H](C)[C@@H](O[C@@H]2O[C@H](C)C[C@H](N(C)C)[C@H]2O)[C@](C)(OC)C[C@@H](C)/C(=N\OC)[C@H](C)[C@H]2OC(=O)O[C@@]21C
Out: 2

In: Please report the recorded Selectivity ratio for CC[C@H]1OC(=O)[C@H](C)[C@@H](OC(=O)CCN2CCN(c3cc4c(cc3F)c(=O)c(C(=O)O)cn4C3CC3)CC2)[C@H](C)[C@@H](O[C@@H]2O[C@H](C)C[C@H](N(C)C)[C@H]2O)[C@](C)(OC)C[C@@H](C)/C(=N\OCC#Cc2cncc(C(=O)NC)c2)[C@H](C)[C@H]2OC(=O)O[C@@]21C .
Out: 4

In: Look up Selectivity ratio for this molecule: CC[C@H]1OC(=O)[C@H](C)[C@@H](OC(=O)CCN2CCN(c3nc4c(cc3F)c(=O)c(C(=O)O)cn4CC)CC2)[C@H](C)[C@@H](O[C@@H]2O[C@H](C)C[C@H](N(C)C)[C@H]2O)[C@](C)(OC)C[C@@H](C)/C(=N\OCC#Cc2cncc(C(=O)NC)c2)[C@H](C)[C@H]2OC(=O)O[C@@]21C
Out: 4

In: Requested read-out: Selectivity ratio. Entry: CC[C@H]1OC(=O)[C@H](C)[C@@H](OC(=O)CCN2CCN(c3cc4c(cc3F)c(=O)c(C(=O)O)cn4C3CC3)CC2)[C@H](C)[C@@H](O[C@@H]2O[C@H](C)C[C@H](N(C)C)[C@H]2O)[C@](C)(OC)C[C@@H](C)/C(=N\OCCCc2cncc(C(=O)NC)c2)[C@H](C)[C@H]2OC(=O)O[C@@]21C
Out: 4

In: Value lookup for Selectivity ratio; key = CC[C@H]1OC(=O)[C@H](C)[C@@H](OC(=O)CCNCCNc2cc3c(=O)c(C(=O)O)cn(C4CC4)c3cc2Cl)[C@H](C)[C@@H](O[C@@H]2O[C@H](C)C[C@H](N(C)C)[C@H]2O)[C@](C)(OC)C[C@@H](C)/C(=N\OC)[C@H](C)[C@H]2OC(=O)O[C@@]21C
Out: 1

In: Which Selectivity ratio is listed for CC[C@H]1OC(=O)[C@H](C)[C@@H](OC(=O)CCNCCCCNc2cc3c(cc2F)c(=O)c(C(=O)O)cn3C2CC2)[C@H](C)[C@@H](O[C@@H]2O[C@H](C)C[C@H](N(C)C)[C@H]2O)[C@](C)(OC)C[C@@H](C)/C(=N\OC/C=C/c2ccc3c(c2)c(=O)c(C(N)=O)cn3CC)[C@H](C)[C@H]2OC(=O)O[C@@]21C ?
Out: 1

In: Record request: Selectivity ratio value, item CC[C@H]1OC(=O)[C@H](C)[C@@H](OC(=O)CCNCCCCCCNc2cc3c(cc2F)c(=O)c(C(=O)O)cn3C2CC2)[C@H](C)[C@@H](O[C@@H]2O[C@H](C)C[C@H](N(C)C)[C@H]2O)[C@](C)(OC)C[C@@H](C)/C(=N\OC)[C@H](C)[C@H]2OC(=O)O[C@@]21C
Out: 2

In: What measured Selectivity ratio goes with CC[C@H]1OC(=O)[C@H](C)[C@@H](OC(=O)CCNCCCCNc2cc3c(cc2F)c(=O)c(C(=O)O)cn3C2CC2)[C@H](C)[C@@H](O[C@@H]2O[C@H](C)C[C@H](N(C)C)[C@H]2O)[C@](C)(OC)C[C@@H](C)/C(=N\OCC#Cc2cncc(NC(C)=O)c2)[C@H](C)[C@H]2OC(=O)O[C@@]21C ?
Out: 1

In: Please report the recorded Selectivity ratio for CC[C@H]1OC(=O)[C@H](C)[C@@H](OC(=O)CCNCCCCNc2cc3c(cc2F)c(=O)c(C(=O)O)cn3C2CC2)[C@H](C)[C@@H](O[C@@H]2O[C@H](C)C[C@H](N(C)C)[C@H]2O)[C@](C)(OC)C[C@@H](C)/C(=N\OCC#Cc2ccc3c(c2)c(=O)c(C(N)=O)cn3CC)[C@H](C)[C@H]2OC(=O)O[C@@]21C .
Out: 1

In: // lookup Selectivity ratio for CC[C@H]1OC(=O)[C@H](C)[C@@H](OC(=O)CCN2CCN(c3c(F)cc4c(=O)c(C(=O)O)cn(C5CC5)c4c3OC)CC2C)[C@H](C)[C@@H](O[C@@H]2O[C@H](C)C[C@H](N(C)C)[C@H]2O)[C@](C)(OC)C[C@@H](C)/C(=N\OCC#Cc2cncc(C(=O)NC)c2)[C@H](C)[C@H]2OC(=O)O[C@@]21C (stereo not given in full)
Out: 4

* * *

Selectivity ratio: recorded values
Test system: Streptococcus pneumoniae
Experiment: Selectivity ratio of MBC for Streptococcus pneumoniae ATCC 49619 to MIC for Streptococcus pneumoniae ATCC 49619
Type: functional
Please reply with the number alone, leaving off any unit.

In: I would be grateful if you could share the reported Selectivity ratio for CC[C@H]1OC(=O)[C@H](C)[C@@H](OC(=O)CCN2CCN(c3cc4c(cc3F)c(=O)c(C(=O)O)cn4C3CC3)CC2)[C@H](C)[C@@H](O[C@@H]2O[C@H](C)C[C@H](N(C)C)[C@H]2O)[C@](C)(OC)C[C@@H](C)/C(=N\OCCCc2cncc(C(=O)NC)c2)[C@H](C)[C@H]2OC(=O)O[C@@]21C .
Out: 2

In: Looking for the measured Selectivity ratio of CC[C@H]1OC(=O)[C@H](C)[C@@H](OC(=O)CCNCCNc2cc3c(=O)c(C(=O)O)cn(C4CC4)c3cc2Cl)[C@H](C)[C@@H](O[C@@H]2O[C@H](C)C[C@H](N(C)C)[C@H]2O)[C@](C)(OC)C[C@@H](C)/C(=N\OC)[C@H](C)[C@H]2OC(=O)O[C@@]21C , can you help?
Out: 2

In: Fill blank: measured Selectivity ratio of the compound CC[C@H]1OC(=O)[C@H](C)[C@@H](O[C@H]2C[C@@](C)(OC)[C@@H](O)[C@H](C)O2)[C@H](C)[C@@H](O[C@@H]2O[C@H](C)C[C@H](N(C)C)[C@H]2O)[C@](C)(OC)C[C@@H](C)C(=O)[C@H](C)[C@@H](O)[C@]1(C)O [CLARITHROMYCIN] is ____.
Out: 4
